// reported IC50 for each item listed
target: Brain AChE (acetylcholinesterase, rat striatum) (Rattus norvegicus, UniProt P37136)
Sequence (P37136 32-614): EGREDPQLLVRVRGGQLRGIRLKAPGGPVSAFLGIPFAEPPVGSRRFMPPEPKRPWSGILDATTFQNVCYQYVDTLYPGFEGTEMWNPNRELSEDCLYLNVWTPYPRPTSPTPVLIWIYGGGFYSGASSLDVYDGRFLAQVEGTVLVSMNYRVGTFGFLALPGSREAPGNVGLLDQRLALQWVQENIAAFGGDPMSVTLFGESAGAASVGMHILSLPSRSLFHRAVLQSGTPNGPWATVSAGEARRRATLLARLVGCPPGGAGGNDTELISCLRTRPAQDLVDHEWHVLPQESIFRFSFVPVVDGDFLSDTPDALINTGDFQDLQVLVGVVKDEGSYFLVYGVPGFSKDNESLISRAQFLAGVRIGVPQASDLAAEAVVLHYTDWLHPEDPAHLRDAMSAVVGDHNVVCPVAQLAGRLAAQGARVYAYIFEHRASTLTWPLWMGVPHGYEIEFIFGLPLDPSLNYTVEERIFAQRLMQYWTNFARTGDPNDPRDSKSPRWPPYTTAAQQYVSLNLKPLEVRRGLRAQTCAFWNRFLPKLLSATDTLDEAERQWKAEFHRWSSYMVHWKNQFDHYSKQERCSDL
Counter-ions that a name gives are not always drawn.
assay metric: IC50

O=C1c2cccc3c2C(CCC3)C1CC1CCN(Cc2ccccc2)CC1 (centres unmarked) [hydrochloride]    1020 nM
O=C1c2cccc3c2C(CCC3)C1CC1CCN(Cc2cccc(F)c2)CC1 (centres unmarked) [hydrochloride]    4100 nM
